Target: SARS-CoV-2 Main Protease (SARS-CoV-2)
Details: 50.0 µM
Hi there, I'd appreciate the recorded inhibition for every entry that follows.
Numbers only, in %.

# per-item lookup of inhibition; items listed below
1. Cn1cnnc1NC(=O)Cc1cccc(Cl)c1F
2. O=C(NCc1ccno1)c1ccccc1Oc1ccc(Cl)cc1Cl
3. O=C(CSC1=NCCS1)c1cc(Cl)ccc1Cl
4. Cc1ccncc1NC(=O)Cc1cccc(OC(F)(F)F)c1
5. CCn1c(=O)n(CC(=O)Nc2c(C)ccnc2C)c2ccccc21

**A:**
1. -13.1
2. 0
3. 44.8
4. 12.6
5. 0

Record inhibition for all entries; do not skip any.
1. Cc1cccc(NC2CCN(c3ccc(S(N)(=O)=O)cc3)CC2)c1
2. COc1ccccc1OCCNC(=O)c1cc(=O)[nH]c2ccc(Cl)cc12
3. CC(=O)Oc1ccccc1C(=O)Nc1ncc([N+](=O)[O-])s1

**A:**
1: 45.9; 2: 23; 3: 0

Quick batch: inhibition for everything below.
1. Cc1cc(C)cc(NC(=O)Cc2cnn(C)c2C)c1
2. Cc1ccncc1NC(=O)Cc1cc(Cl)c2c(c1)OCCO2
3. CCC(=O)Nc1cccc(OC2CC(=O)N2)c1 (configuration not stated)
4. O=C(NCCOc1ccccc1)c1cc(=O)[nH]c2ccccc12

**A:**
[0, 10.9, 0, 3.05]

---

Biological target: SARS-CoV-2 Main Protease (SARS-CoV-2)
Conditions: 20.0 µM
RECORDED ENDPOINT: inhibition (%)
Numbers only, in %.

For orientation, consider the following solved cases.
COMPOUND: O=S1(=O)CCC(N2CCN(c3nc(-c4cccnc4)nc4ccccc34)CC2)C1 (stereo unspecified)
inhibition [%]: 0
//
COMPOUND: CC(=O)NCCc1cn(CC(=O)N2CCOCC2)c2ccccc12
inhibition [%]: 0
//
COMPOUND: COc1ccnc(NC(=O)Cc2ccc3ccccc3c2)c1
inhibition [%]: 0
//
COMPOUND: C=CC(=O)N(c1ccc(C(C)(C)C)cc1)C(C(=O)Nc1cccc(F)c1C)c1cccnc1 (stereo unspecified)
inhibition [%]: 0
//
COMPOUND: C=CC(=O)N(c1ccc(C(C)(C)C)cc1)C(C(=O)NCCSC)c1cccnc1 (stereo unspecified)
inhibition [%]: 56
//
COMPOUND: CC(CCc1ccccc1)N1CCN(C(=O)CCl)CC1 (stereo unspecified)
inhibition [%]: 62.6
//
COMPOUND: C=CC(=O)N(c1ccc(N(C)C)c(C)c1)C(C(=O)Nc1ccc(Cl)cc1)c1cccnc1 (stereo unspecified)
inhibition [%]: 0
//
COMPOUND: CC(Cl)C(=O)N1CCC(C(=O)N2CCCCC2)CC1 (stereo unspecified)
inhibition [%]: 0
//
COMPOUND: N#Cc1cc(Cl)cc(NC(=O)Nc2cccnc2)c1
inhibition [%]: 6.78
//
COMPOUND: O=C(CCl)N1CCCc2cc(NCc3ccc(F)cc3Cl)ccc21
inhibition [%]: 47.9

**Q:** Retrieve inhibition on SARS-CoV-2 Main Protease (SARS-CoV-2); query C=CC(=O)N(c1ccc(C(C)(C)C)cc1)C(C(=O)NCC)c1cccnc1 (stereo unspecified)
**A:** 52.6

---

Biological target: SARS-CoV-2 Main Protease (SARS-CoV-2) (UniProt P0DTD1)
Details: 50.0 µM
Threshold check on inhibition: at or above 10% gives Met, strictly below gives Not met.

Take a look at these entries with their results.
MOLECULE: C=CC(=O)N(C1CC(C)OC1=O)C(C(=O)NC(C)(C)C)c1cccnc1 (stereo not drawn)
ANSWER LABEL: Not met
//
MOLECULE: O=C(Nc1cccnc1)Nc1ccc(Cl)s1
ANSWER LABEL: Met
//
MOLECULE: CCOCC(=O)NCc1ccc(CNC(=O)Cn2nnc3ccccc32)cc1
ANSWER LABEL: Not met
//
MOLECULE: O=C(Cc1c[nH]c2ncccc12)NCc1ccc(Cl)cn1
ANSWER LABEL: Not met
//
MOLECULE: CCn1c(=O)n(CC(=O)Nc2c(C)ccnc2C)c2ccccc21
ANSWER LABEL: Not met
//
MOLECULE: Cc1ccc(S(=O)(=O)N2CCN(C(=O)c3cc(=O)[nH]c4cc(F)ccc34)CC2)c(C)c1
ANSWER LABEL: Met
//
MOLECULE: Cc1noc(C)c1CCNC(=O)Nc1cn(CC(C)C)c(=O)c2ccccc12
ANSWER LABEL: Met
//
MOLECULE: Cc1ccc(S(=O)(=O)Nc2c(-c3cccnc3)nc3ccccn23)c(C)c1
ANSWER LABEL: Not met
//
MOLECULE: Cc1nn(C(C)C)c(C)c1CC(=O)Nc1nncn1C1CC1
ANSWER LABEL: Not met
//
MOLECULE: C#CCN1CCN(C(=O)CCl)CC1
ANSWER LABEL: Met

**Q:** Hi, just wondering whether O=C(NC1CCCCC1NC(=O)C1CCCCC1)c1ccncc1 (stereo not drawn) shows inhibition of 10% or higher.
**A:** Not met

**Q:** Is the recorded value of inhibition equal to or greater than 10% for this molecule? `CS(=O)(=O)NCCc1ccccc1O`
**A:** Met

**Q:** Is the recorded value of inhibition equal to or greater than 10% for this molecule? `Cc1ccc(NCc2cc(NC(=O)OC(C)(C)C)ccc2Br)cn1`
**A:** Not met

**Q:** Hello, I need to know if NS(=O)(=O)c1ccc(C(=O)N2Cc3ccccc3C(c3ccccc3)C2)cc1 (stereo not drawn) has measured inhibition not below 10%. Thanks!
**A:** Not met

**Q:** Evaluate `Sc1nc2ccccc2c2nc(CCc3ccccc3)nn12` : inhibition at minimum 10%?
**A:** Not met

**Q:** Does the molecule `O=C(Cc1cc(Cl)cc(Cl)c1)Nc1nncs1` have recorded inhibition that is 10% or more?
**A:** Not met

**Q:** inhibition >= 10% for `O=C(O)CNC(=O)c1ncc(-c2cccc(Cl)c2)cc1O` ?
**A:** Not met

**Q:** Does C=CC(=O)N(c1ccc2ncsc2c1)C(C(=O)Nc1ccc(OC)cc1C)c1cccnc1 (stereo not drawn) have a reported inhibition of at least 10%?
**A:** Met

**Q:** Can `CCN(Cc1cccc(-c2ccncc2)c1)C(=O)Cn1nnc2ccccc21` be said to have inhibition at or above 10%?
**A:** Met

**Q:** Given CCOC(=O)c1ccc(NC(=O)CC2SC(=O)N(c3ccccc3)C2=O)cc1 (stereo not drawn) , state whether its inhibition is at least 10%.
**A:** Met

**Q:** Has C=CC(=O)N(c1ccc(N(C)C)c(C)c1)C(C(=O)Nc1ccccc1Br)c1cccnc1 (stereo not drawn) a recorded inhibition greater than or equal to 10%?
**A:** Not met

**Q:** Does the molecule C=CC(=O)N(c1ccc(C(C)(C)C)cc1)C(C(=O)NCC)c1cccnc1 (stereo not drawn) have recorded inhibition that is 10% or more?
**A:** Met

**Q:** Can `N#Cc1cnn(-c2ccccc2NC(=O)Cc2ccn[nH]2)c1N` be said to have inhibition at or above 10%?
**A:** Not met

---

Conditions: 20.0 µM
For each of the molecules below, state its relative solubility at 20 uM.

Answered cases to consult:
MOLECULE: COc1ccccc1OC1CCCN(C(=O)c2cc(=O)[nH]c3ccc(Cl)cc23)C1 (stereo not given)
relative solubility at 20 uM: 0.99
--
MOLECULE: C=CC(=O)N(c1ccc(C(C)(C)C)cc1)C(C(=O)NC1CCCCC1)c1cccnc1 (stereo not given)
relative solubility at 20 uM: 0.99
--
MOLECULE: C=CC(=O)N(c1ccc(C(F)(F)F)cc1)C(C(=O)Nc1ccc(OC)cc1C)c1cccnc1 (stereo not given)
relative solubility at 20 uM: 0.95

I would be grateful if you could provide relative solubility at 20 uM for each of the following entries.
1. C=C1CC1C(=O)NC(C)c1ccc(S(=O)(=O)NC)cc1 (stereo not given)
2. CC1(C)CCCN1S(=O)(=O)c1ccc2c(c1)C(=O)C(=O)N2
3. O=C(Cc1c[nH]c2ncccc12)NCc1cc(Cl)ccn1

**A:**
[1, 0.94, 1]

Parameter requested: relative solubility at 20 uM. Apply to each item below.
1. C=CC(=O)N(c1ccc(S(F)(F)(F)(F)F)cc1)C(C(=O)NC(C)(C)C)c1cccnc1 (stereo not given)
2. CS(=O)(=O)Nc1cccc(C(=O)Oc2cccc(N3CCCC3=O)c2)c1
3. CC(c1cccc(NC(=O)Cc2cnccc2Cl)c1)N1CCOCC1 (stereo not given)
4. Cc1ccc(Oc2cccc(NC(=O)NCc3cnnn3C)c2)c(C)c1

**A:**
1: 0.98; 2: 0.99; 3: 0.97; 4: 0.96

---

Details: 20.0 µM
Please respond with reported relative solubility at 20 uM for every item in the list.
Give bare numbers.

Would you be so kind as to report relative solubility at 20 uM for each listed record?
1. O=C(Cc1ccc2ccccc2c1)Nc1cc(C(F)(F)F)ccn1
2. CCN(CC1COc2ccccc2O1)C(=O)c1cc(=O)[nH]c2ccc([N+](=O)[O-])cc12 (stereo not drawn)
3. O=C(Nc1ccccc1OC1CCN(Cc2ccccc2)CC1)C1CCN(C(=O)CCl)CC1
4. C=CC(=O)N(c1ccc(C2(C)CC2)cc1)C(C(=O)Nc1ccc(OC)cc1C)c1cccnc1 (stereo not drawn)
5. Cc1cccc(NC(=O)C(C#N)C(=O)CC(C)C)c1 (stereo not drawn)
6. C=CC(=O)N(C1CCC2(CCCC2)C1)C(C(=O)NC(C)(C)C)c1cccnc1 (stereo not drawn)
7. C=CC(=O)N(c1ccc(N2CCC2)cc1)C(C(=O)NC(C)(C)C)c1cccnc1 (stereo not drawn)

**A:**
[0.9, 1, 0.94, 1, 1, 0.98, 0.97]

List the reported relative solubility at 20 uM of each compound below.
1. Cc1[nH]ncc1NC(=O)Cc1cccc(Cl)c1
2. Cc1cccc(NC(=O)Cn2cncc2C)n1
3. C=CC(=O)N(c1ccc(C(C)(C)CC)cc1)C(C(=O)Nc1ccccc1Br)c1cccnc1 (stereo not drawn)
4. C=CC(=O)N(c1cc(C(C)(C)C)on1)C(C(=O)Nc1c(C)cccc1CC)c1cccnc1 (stereo not drawn)
5. Cc1ccncc1NC(=O)Nc1ccccc1
6. O=C(CCl)N1CCN(C(c2ccccc2)C2CCCCC2)CC1 (stereo not drawn)
7. O=C(CCl)N1CCN(S(=O)(=O)c2cccs2)CC1

**A:**
0.99
1
1
0.99
1
0.98
1

Go through the list and state relative solubility at 20 uM for each entry.
1. Cc1cnc(CC(=O)Nc2cccnc2)o1
2. C=CC(=O)N(c1ccc(C(F)(F)F)cc1)C(C(=O)Nc1c(C)cccc1CC)c1cccnc1 (stereo not drawn)
3. O=C(NCc1ccccc1OCCO)C(=O)N[C@H]1C[C@H]1C1CCOCC1 (stereo in doubt)
4. Cc1cc(Br)cc2c1N(CCBr)C(=O)C2=O
5. Cn1nncc1CC(=O)NC(c1ccccc1)c1nc2ccccc2n1C (stereo not drawn)
6. C#Cc1ccc(CNC(=O)N2CCOCC2)cc1
7. O=C(Cc1cccc(Cl)c1)Nc1cnns1

**A:**
0.99
0.89
1.01
1
1
1
0.99

Required: relative solubility at 20 uM, one value per compound below.
1. CS(=O)(=O)c1oc(-c2ccc(F)cc2)nc1S(=O)(=O)c1ccc(Cl)cc1
2. NS(=O)(=O)c1ccc(N2CCC(c3ccco3)CC2)cc1

**A:**
1. 0.78
2. 1

src = the COVID Moonshot data (paper PMC11187573)
